Species: Homo sapiens
Assay: Selectivity index, ratio of Ki for human CB1 receptor to KI for human CB2 receptor
A collection of compounds and their measured Ratio Ki

# annotated cases, reported Ratio Ki shown
O=C(Cc1ccccc1)NC(NC(=O)Cc1ccccc1)c1ccc(N(Cc2ccccc2)Cc2ccccc2)cc1 : > 99
COc1ccc(C(NC(=O)Cc2ccccc2)NC(=O)Cc2ccccc2)cc1 : > 26

# input Recorded Ratio Ki for CCCCC(=O)NC(NC(=O)CCCC)c1ccc(N(CC)CC)cc1 , please?
# output > 109

====

Species on record: Homo sapiens
Assay: Selectivity index, ratio of Ki for human CB1 receptor to KI for human CB2 receptor
result_type: Ratio Ki

O=C(Cc1ccc(Cl)cc1)NC(NC(=O)Cc1ccc(Cl)cc1)c1ccc(Cl)cc1 : > 130

# input Recorded Ratio Ki for CCN(CC)c1ccc(C(NC(=O)/C=C/c2ccccc2)NC(=O)/C=C/c2ccccc2)cc1 , please?
# output > 119

# input Recorded Ratio Ki for O=C(Cc1ccc(Cl)cc1)NC(NC(=O)Cc1ccc(Cl)cc1)c1ccccc1C(F)(F)F , please?
# output > 127

# input Recorded Ratio Ki for O=C(Cc1ccccc1)NC(NC(=O)Cc1ccccc1)c1ccc(N2CCCCC2)cc1 , please?
# output > 34

# input Recorded Ratio Ki for CN(C)c1ccc(C(NC(=O)Cc2ccccc2)NC(=O)Cc2ccccc2)cc1 , please?
# output > 26

====

A collection of compounds and their measured pKi
Target: Cannabinoid receptor 2 (Homo sapiens, UniProt P34972)
Sequence (P34972 whole entry): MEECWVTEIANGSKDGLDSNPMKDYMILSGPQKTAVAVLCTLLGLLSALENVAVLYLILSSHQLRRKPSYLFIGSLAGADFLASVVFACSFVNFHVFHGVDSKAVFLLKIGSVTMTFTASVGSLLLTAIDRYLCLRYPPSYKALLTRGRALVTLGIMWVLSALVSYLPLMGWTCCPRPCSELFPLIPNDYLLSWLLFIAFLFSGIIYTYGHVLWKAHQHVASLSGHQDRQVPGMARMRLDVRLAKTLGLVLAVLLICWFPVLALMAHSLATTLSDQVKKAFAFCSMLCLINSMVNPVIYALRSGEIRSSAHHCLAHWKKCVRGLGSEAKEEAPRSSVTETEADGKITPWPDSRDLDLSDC
Assay: Displacement of [3H]CP55940 from human CB2 receptor expressed in CHO cells incubated for 1 hr
Format: cell-based
pKi: −log10 of the molar value.

O=C(Cc1ccccc1)NC(NC(=O)Cc1ccccc1)c1ccc([N+](=O)[O-])cc1 : < 4.70

# input Recorded pKi for O=C(Cc1ccccc1)NC(Cc1ccccc1)NC(=O)Cc1ccccc1 , please?
# output < 4.70

# input Recorded pKi for O=C(Cc1ccc(C(F)(F)F)cc1)NC(NC(=O)Cc1ccc(C(F)(F)F)cc1)c1ccccc1 , please?
# output < 4.70

# input Recorded pKi for O=C(Cc1ccc(C(F)(F)F)cc1)NC(NC(=O)Cc1ccc(C(F)(F)F)cc1)c1ccc(Cl)cc1 , please?
# output < 4.70

# input Recorded pKi for O=C(Cc1ccccc1)NC(NC(=O)Cc1ccccc1)c1ccc(N2CCCC2)cc1 , please?
# output 7.15

====

Below are molecules with their Ki as measured on UniProt P34972.

# annotated cases, reported Ki shown
O=C(Cc1ccc(C(F)(F)F)cc1)NC(NC(=O)Cc1ccc(C(F)(F)F)cc1)c1ccc(C(F)(F)F)cc1 : > 20 µM
CCN(CC)c1ccc(C(NC(=O)/C=C/c2ccccc2)NC(=O)/C=C/c2ccccc2)cc1 : 0.167 µM
O=C(Cc1ccc(C(F)(F)F)cc1)NC(NC(=O)Cc1ccc(C(F)(F)F)cc1)c1ccc(F)cc1 : > 20 µM

Consider now this further molecule.
# input Param readout = Ki; param system = UniProt P34972; param query = Cc1ccc(C(NC(=O)Cc2ccc(C(F)(F)F)cc2)NC(=O)Cc2ccc(C(F)(F)F)cc2)cc1 ; response: value
# output > 20 µM

====

A collection of compounds and their measured EC50
Molecular target: Cannabinoid receptor 2 (Homo sapiens)
Assay: Inverse agonist activity at human CB2 receptor expressed in CHO cells assessed as increase in forskolin-induced cAMP accumulation incubated for 45 mins by TR-FRET method based LANCE cAMP assay
Supply the numeric figure in nM, leaving out any unit text.

CC(C)c1ccc(C(NC(=O)Cc2ccccc2)NC(=O)Cc2ccccc2)cc1 : 4.11

# input Recorded EC50 for O=C(Cc1ccccc1)NC(NC(=O)Cc1ccccc1)c1ccc(N2CCCC2)cc1 , please?
# output 17.1

# input Recorded EC50 for CCCN(CCC)c1ccc(C(NC(=O)Cc2ccccc2)NC(=O)Cc2ccccc2)cc1 , please?
# output 28.3

# input Recorded EC50 for CCN(CC)c1ccc(C(NC(=O)Cc2ccccc2)NC(=O)Cc2ccccc2)cc1 , please?
# output 5.73

# input Recorded EC50 for CN(C)c1ccc(C(NC(=O)Cc2ccccc2)NC(=O)Cc2ccccc2)cc1 , please?
# output 159

# input Recorded EC50 for CCCCCC(=O)NC(NC(=O)CCCCC)c1ccc(N(CC)CC)cc1 , please?
# output 13.4
